The reported numbers originate from ChEMBL document CHEMBL3608295.

test: Hemolytic activity in human RBC at 12.5 uM after 30 mins relative to control; assay type: ADME, cell-based, Erythrocyte; conditions: human red blood cells (RBC), read-out: Activity
Starred links: 1 amine or outer side, 2 acyl side, 3 side chain; linkers in the order of their positions; H or OH if unused. Positions of bridges follow the written chain, without caps; N, C: chain ends. Non-standard residues stand in square brackets, D forms with d. Residues, ends and D or L forms follow the SMILES beside them. R5 = C=CCCC[C@@](C)(N)C(=O)O; Suc = O=C(CCC(=O)[*:2])[*:1]
Consider the following molecules; for each one, report its hemolysis at 0.5 h, 12.5 µM.
Give the value, in units of %, as a plain number.

Lookup: Field request: hemolysis at 0.5 h, 12.5 µM | item: CC(=O)N[C@@H](CCCCN)C(=O)N[C@]1(C)CCC/C=C\CCC[C@](C)(C(=O)N[C@@H](CCCCN)C(=O)N[C@@H](CCCCN)C(=O)N[C@]2(C)CCC/C=C\CCC[C@](C)(C(=O)N[C@@H](Cc3c[nH]c4ccccc34)C(=O)N[C@@H](CCCCN)C(N)=O)NC(=O)[C@H](C)NC(=O)[C@H](CCCCN)NC(=O)[C@H](C)NC2=O)NC(=O)[C@H](C)NC(=O)[C@H](CCCCN)NC(=O)[C@H](C)NC1=O (Ac-K[R5]AKA[R5]KK[R5]AKA[R5]WK-NH2; staple (Z) 2-6, 9-13)
Found: 22.1

Lookup: And C[C@@H]1NC(=O)[C@H](CCCCN)NC(=O)[C@H](C)NC(=O)[C@](C)(NC(=O)[C@H](CCCCN)NC(=O)[C@H](CCCCN)NC(=O)[C@@]2(C)CCC/C=C\CCC[C@@](C)(NC(=O)[C@H](CCCCN)NC(=O)CCC(=O)O)C(=O)N[C@@H](C)C(=O)N[C@@H](CCCCN)C(=O)N[C@@H](Cc3c[nH]c4ccccc34)C(=O)N2)CCC/C=C\CCC[C@](C)(C(=O)N[C@@H](C)C(=O)N[C@@H](CCCCN)C(N)=O)NC1=O (Suc-K[R5]AKW[R5]KK[R5]AKA[R5]AK-NH2; staple (Z) 2-6, 9-13) ?
Found: 19.5

Lookup: And CC(=O)N[C@@H](CCCCN)C(=O)N[C@]1(C)CCC/C=C\CCC[C@](C)(C(=O)N[C@@H](CCCCN)C(=O)N[C@@H](CCCCN)C(=O)N[C@]2(C)CCC/C=C\CCC[C@](C)(C(=O)N[C@@H](C)C(=O)N[C@@H](CCCCN)C(N)=O)NC(=O)[C@H](Cc3c[nH]c4ccccc34)NC(=O)[C@H](CCCCN)NC(=O)[C@H](C)NC2=O)NC(=O)[C@H](C)NC(=O)[C@H](CCCCN)NC(=O)[C@H](C)NC1=O (Ac-K[R5]AKA[R5]KK[R5]AKW[R5]AK-NH2; staple (Z) 2-6, 9-13) ?
Found: 25.3

---

system: Klebsiella pneumoniae; assay: Antimicrobial activity against Klebsiella pneumoniae ATCC 10031 after 24 hrs by broth microdilution method; format: functional; details: ATCC 10031, 24 h
Positions of bridges follow the written chain, without caps; N, C: chain ends. Non-standard residues stand in square brackets, D forms with d. Residues, ends and D or L forms follow the SMILES beside them. R5 = C=CCCC[C@@](C)(N)C(=O)O
Consider the following molecules; for each one, report its MIC.
Give the value, in units of µg/mL, as a plain number.

Lookup: Field request: MIC | item: CC(=O)N[C@@H](CCCCN)C(=O)N[C@]1(C)CCC/C=C\CCC[C@](C)(C(=O)N[C@@H](CCCCN)C(=O)N[C@@H](CCCCN)C(=O)N[C@@H](C)C(=O)N[C@@H](C)C(=O)N[C@@H](CCCCN)C(=O)N[C@@H](C)C(=O)N[C@@H](C)C(=O)N[C@@H](Cc2c[nH]c3ccccc23)C(=O)N[C@@H](CCCCN)C(N)=O)NC(=O)[C@H](C)NC(=O)[C@H](CCCCN)NC(=O)[C@H](C)NC1=O (Ac-K[R5]AKA[R5]KKAAKAAWK-NH2; staple (Z) 2-6)
Found: 18.8

Lookup: And CC(=O)N[C@@H](CCCCN)C(=O)N[C@]1(C)CCC/C=C\CCC[C@](C)(C(=O)N[C@@H](CCCCN)C(=O)N[C@@H](CCCCN)C(=O)N[C@]2(C)CCC/C=C\CCC[C@](C)(C(=O)N[C@@H](C)C(=O)N[C@@H](CCCCN)C(N)=O)NC(=O)[C@H](C)NC(=O)[C@H](CCCCN)NC(=O)[C@H](C)NC2=O)NC(=O)[C@H](C)NC(=O)[C@H](CCCCN)NC(=O)[C@H](Cc2c[nH]c3ccccc23)NC1=O (Ac-K[R5]WKA[R5]KK[R5]AKA[R5]AK-NH2; staple (Z) 2-6, 9-13) ?
Found: 100
